- Tested on: HepG2-GM130-SQSTM1
- assay_procedure: lowest phenotypically active concentration; higher = less potent
- setup_conditions: treatment time: 24 h
Where a name gives a salt, the structure may show the parent alone.
quantity_name: lowest phenotypically active concentration (µM)
Reply numerically in µM, unit not repeated.

compound: O=C1Nc2ccc(F)cc2C1=C1Nc2ccccc2C1=NO
value_measured: 1

compound: C=C1CC[C@@H]2[C@](C)(CO)[C@H](O)CC[C@@]2(C)[C@@H]1C/C=C1/C(=O)OC[C@H]1O [Andrographolide]
value_measured: 1

compound: Nc1nccc2c1ncn2[C@@H]1C=C(CO)[C@@H](O)[C@H]1O [3-Deazaneplanocin A hydrochloride]
value_measured: 1

QUERY: Item OCc1cc(C(O)CNCCCCCCOCCCCc2ccccc2)ccc1O (configuration not stated) with HepG2-GM130-SQSTM1 - lowest phenotypically active concentration?
RESULT: 9

QUERY: Any idea what lowest phenotypically active concentration came out for CCCC1(CCC)CCC2(CCN(CCCN(CC)CC)C2)CC1 [Atiprimod dihydrochloride] on HepG2-GM130-SQSTM1?
RESULT: 1

QUERY: Form entry - test system: HepG2-GM130-SQSTM1; read-out: lowest phenotypically active concentration; compound: CCCCc1oc2ccccc2c1C(=O)c1cc(I)c(OCCN(CC)CC)c(I)c1
RESULT: 9

----------
- System: HepG2-TUBA1B-RELA
- assay_procedure: phenotypically active (imaging signature differs from DMSO and reproducible) at any of 0.3-9 uM (binary (1 = active, 0 = inactive)); higher = active
- setup_conditions: treatment time: 24 h
quantity_name: phenotypically active

Reference set (3 entries):
compound: CCCCNNC(=O)c1ccc(Br)cc1
quantity_name: phenotypically active
value_measured: 1 (active)
--
compound: CN(C)C(=O)C(CCN1CCC(O)(c2ccc(Cl)cc2)CC1)(c1ccccc1)c1ccccc1 [loperamide]
quantity_name: phenotypically active
value_measured: 1 (active)
--
compound: COc1cc2c3cc1Oc1cc(ccc1O)C[C@@H]1c4c(cc(OC)c(O)c4Oc4ccc(cc4)C[C@@H]3N(C)CC2)CC[N+]1(C)C [(+)-Tubocurarine chloride]
quantity_name: phenotypically active
value_measured: 0 (inactive)

In the following, a different compound is considered.
QUERY: phenotypically active for Cc1ccc([N+](=O)[O-])cc1S(=O)(=O)N(C)/N=C/c1cnc2ccc(Br)cn12 ?
RESULT: 1 (active)

----------
- Test system: A549-TUBA1B-RELA
- assay_procedure: lowest phenotypically active concentration; higher = less potent
- setup_conditions: treatment time: 24 h
Listed here are compounds together with their documented lowest phenotypically active concentration.
# value in µM; strip the unit string

As a guide, the following entries are already answered.
smiles_text: O=C(Nc1ccc(-c2ccnc(Nc3ccc(N4CCOCC4)cc3)n2)cc1)[C@@H]1CCCN1
value_measured: 3
//
smiles_text: COc1cc(N2CCC(N)CC2)ccc1Nc1ncc(Cl)c(-c2c[nH]c3ccccc23)n1
value_measured: 1

Read the next record carefully.
QUERY: Can you look up the measured lowest phenotypically active concentration of COc1cc2ncnc(Nc3ccc(O)c(Br)c3)c2cc1OC for me?
RESULT: 3

----------
- System: HepG2-TP53BP1-CLTA
- assay_procedure: phenotypically active (imaging signature differs from DMSO and reproducible) at any of 0.3-9 uM (binary (1 = active, 0 = inactive)); higher = active
- setup_conditions: treatment time: 24 h
Where a name gives a salt, the structure may show the parent alone.
Choose one outcome from this list and give only that: active, inactive

Check out these entries, answers already filled in.
compound: CCCc1nc2c(C)cc(-c3nc4ccccc4n3C)cc2n1Cc1ccc(-c2ccccc2C(=O)O)cc1
label_class: inactive

compound: O=C(O)Cc1cccc(OCCCN(Cc2cccc(C(F)(F)F)c2Cl)CC(c2ccccc2)c2ccccc2)c1 [GW 3965 hydrochloride]
label_class: inactive

compound: CCN(CC)CCNc1ccc(CO)c2sc3ccccc3c(=O)c12
label_class: active

compound: Nc1ncnc2[nH]nc(Nc3ccc(F)cc3)c12
label_class: active

compound: O=S(=O)(NCCSSCCNS(=O)(=O)c1cc(Cl)ccc1Cl)c1cc(Cl)ccc1Cl
label_class: inactive

QUERY: Identify the outcome logged in this assay for the compound shown: Nc1ncnc2c1ncn2[C@@H]1O[C@H](CO)C[C@H]1O [Cordycepin]
RESULT: inactive

QUERY: GET /call?item= N=C(N)NC(=O)Cc1c(Cl)cccc1Cl returns the recorded outcome of this test.
RESULT: inactive

QUERY: Please indicate how the test categorized COc1cc(C(=O)N2CCC(N3CCN(C)CC3)CC2)ccc1Nc1ncc2c(n1)N(C)c1ccccc1C(=O)N2C .
RESULT: active

----------
- Tested on: WPMY1-ACTB-RAB5A
- assay_procedure: phenotypically active (imaging signature differs from DMSO and reproducible) at any of 0.3-9 uM (binary (1 = active, 0 = inactive)); higher = active
- setup_conditions: treatment time: 24 h
Structures can show the parent of a compound that is named as a salt.
Hi! Could you answer with just one of these? active, inactive

compound: CN(CCOc1ccc(C[C@H](Nc2ccccc2C(=O)c2ccccc2)C(=O)O)cc1)c1ccccn1 [GW 1929 hydrochloride]
target_under_test: WPMY1-ACTB-RAB5A
label_class: inactive
--
compound: COc1ccc(C[C@H](C)NC[C@@H](O)c2ccc(O)c(NC=O)c2)cc1
target_under_test: WPMY1-ACTB-RAB5A
label_class: inactive
--
compound: NC(=O)C(c1ccccc1)(c1ccc(F)cc1)c1ccc(F)cc1
target_under_test: WPMY1-ACTB-RAB5A
label_class: inactive
--
compound: CC(C(=O)Nc1cccc(/N=C/c2c(O)ccc3ccccc23)c1)c1ccccc1 (stereo unspecified) [Salermide]
target_under_test: WPMY1-ACTB-RAB5A
label_class: inactive
--
compound: N#Cc1cccc(-c2c[nH]c3ncnc(N4CCOCC4)c23)c1
target_under_test: WPMY1-ACTB-RAB5A
label_class: active
--
compound: Nc1ncnc2c1ncn2[C@@H]1O[C@H](CO)[C@@H](O)[C@H]1O
target_under_test: WPMY1-ACTB-RAB5A
label_class: inactive
--
compound: COc1ccc(CCN(C)CCCN2CCc3cc(OC)c(OC)cc3CC2=O)cc1OC
target_under_test: WPMY1-ACTB-RAB5A
label_class: inactive
--
compound: O=c1[nH]cnc2[nH]ncc12
target_under_test: WPMY1-ACTB-RAB5A
label_class: inactive

Now for another entry.
QUERY: I would be grateful if you could indicate the recorded call for COc1ccccc1OCC(O)CN1CCN(CC(=O)Nc2c(C)cccc2C)CC1 (stereo unspecified) .
RESULT: inactive

----------
Entries and their phenotypically active
- System: HepG2-CANX-COX4
- assay_procedure: phenotypically active (imaging signature differs from DMSO and reproducible) at any of 0.3-9 uM (binary (1 = active, 0 = inactive)); higher = active
- setup_conditions: treatment time: 24 h
Where a name gives a salt, the structure may show the parent alone.
Give the figure only, with no unit attached.

compound: CCCCCCCCCCNCCSSCc1ccc(Cl)cc1
phenotypically active: 1

QUERY: Requested read-out: phenotypically active. Entry: CC(C)NCC(O)c1ccc(O)c(O)c1 (stereo not given) [Isoproterenol hydrochloride]
RESULT: 0

QUERY: Which measured phenotypically active value corresponds to Nc1ccn([C@@H]2O[C@H](CO)[C@@H](O)[C@@H]2O)c(=O)n1 ?
RESULT: 1

QUERY: Data request, read-out phenotypically active, for Cc1c(F)cc(C(=O)NC2CC2)cc1-c1ccc(C(=O)NCC(C)(C)C)cn1
RESULT: 0

QUERY: // query phenotypically active value for entry C[C@H]1COCCN1c1cc(C2(S(=O)(=O)C3CC3)CC2)nc(-c2ccc(NC(=S)NCCO)cc2)n1
RESULT: 1

QUERY: Give its phenotypically active value. Item: CCCNC(=O)NS(=O)(=O)c1ccc(Cl)cc1 [chlorpropamide]
RESULT: 0

QUERY: Report phenotypically active for COc1ccc(CCc2nc3c(C)c(-c4c(C)noc4C)c(C)cc3n2CCN2CCOCC2)cc1 please.
RESULT: 0

QUERY: Any idea what phenotypically active was measured for NS(=O)(=O)Cc1noc2ccccc12 [zonisamide] ?
RESULT: 0

QUERY: Request the reported phenotypically active associated with S=c1[nH]cnc2nc[nH]c12
RESULT: 1

QUERY: Look at this compound and give its reported phenotypically active. Cc1ncc(-c2ccnc(Nc3ccc(S(C)(=O)=O)cc3)n2)n1C(C)C
RESULT: 1

QUERY: Param item = Cc1cc2c(F)c(Oc3ncnn4cc(OC[C@@H](C)O)c(C)c34)ccc2[nH]1 ; retrieve measured phenotypically active.
RESULT: 1

QUERY: Field request: phenotypically active | item: O=C(O)[C@]1(O)C[C@H](O)[C@@H](O)[C@@H](O)C1
RESULT: 0

QUERY: Value lookup for phenotypically active; key = COc1ccc(S(=O)(=O)N(CCO)c2ccccc2CN(C)C/C=C/c2ccc(Cl)cc2)cc1
RESULT: 1

QUERY: // returns reported phenotypically active for input NS(=O)(=O)c1cc2c(cc1Cl)N=C(CSCc1ccccc1)NS2(=O)=O [benzthiazide]
RESULT: 0

QUERY: Suppose we examine the compound O=C(O)[C@]1(Cc2cccc(Nc3nccs3)n2)CC[C@@H](Oc2cccc(Cl)c2F)CC1 ; what phenotypically active value has been reported?
RESULT: 1

QUERY: Which phenotypically active value is on record for NC(=O)c1ccc(N(C(N)=O)c2c(F)cccc2F)nc1-c1ccc(F)cc1F ?
RESULT: 0

QUERY: Record request: phenotypically active value, item NCC[C@H](O)C(=O)N[C@H]1C[C@@H](N)[C@H](O[C@H]2O[C@H](CN)[C@@H](O)[C@H](O)[C@H]2O)[C@@H](O)[C@@H]1O[C@H]1O[C@H](CO)[C@@H](O)[C@H](N)[C@H]1O [Amikacin hydrate]
RESULT: 0

QUERY: Look up phenotypically active for this compound: C=C[C@H]1CN2CC[C@H]1C[C@@H]2[C@@H](O)c1ccnc2ccc(OC)cc12 [Quinidine hydrochloride monohydrate]
RESULT: 0

QUERY: Give the measured phenotypically active of O=C(CCCc1ccc(-c2ccccc2F)cc1)Nc1ccc(O)cc1 .
RESULT: 1
